Assign ddG of mutation (higher = less stable) to each entry below.
B1: Protein S100-G, P02633 (parent)
chain: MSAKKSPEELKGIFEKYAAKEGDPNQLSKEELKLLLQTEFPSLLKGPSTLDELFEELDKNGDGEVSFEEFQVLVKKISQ

# Variants of: B1
# CONDITION SET: Bos taurus; pH 7; 25 °C; Urea; CD; PIPES-KOH 20 mM; reversible: yes; structure 1IGV; whole UniProt chain shown
Give bare numbers, in kcal/mol.

Consider the reported ddG of mutation (higher = less stable) for these variants:
[[record]]
mutation_label = "E21Q"
unit_info = "kcal/mol"
quantitative_result = -0.38

[[record]]
mutation_label = "E21Q D23N"
unit_info = "kcal/mol"
quantitative_result = -1.19

[[record]]
mutation_label = "D23N E30Q"
unit_info = "kcal/mol"
quantitative_result = -0.52


QUERY: Any idea what its ddG of mutation (higher = less stable) is? The variant is E21Q D23N E30Q
RESULT: -0.93

Source listed as FireProtDB (doi:10.1002/prot.340080106).
